assay: Vero E6 cell cytotoxicity, dose response, cytotoxicity control for non-replicating M. tuberculosis project, secondary assay (AID 492998); details: series mostly up to 20 µM
In all, about 2,300 compounds went through this assay and about 550 (24%) were called active. The list is a sample of the results. Potency and affinity values are given separately.
parameter.measured: outcome

Oc1ccccc1Nc1nc(NCC2CCCO2)c2ccccc2n1 (stereo not drawn): inactive
CCCn1nnnc1NCc1ccc(C(C)C)cc1: inactive
COc1cc(N=c2ssnc2Cl)cc(OC)c1: inactive
